So I've got AC50 readings for UniProtKB P41145, take a look.
Sequence (P41145 whole entry): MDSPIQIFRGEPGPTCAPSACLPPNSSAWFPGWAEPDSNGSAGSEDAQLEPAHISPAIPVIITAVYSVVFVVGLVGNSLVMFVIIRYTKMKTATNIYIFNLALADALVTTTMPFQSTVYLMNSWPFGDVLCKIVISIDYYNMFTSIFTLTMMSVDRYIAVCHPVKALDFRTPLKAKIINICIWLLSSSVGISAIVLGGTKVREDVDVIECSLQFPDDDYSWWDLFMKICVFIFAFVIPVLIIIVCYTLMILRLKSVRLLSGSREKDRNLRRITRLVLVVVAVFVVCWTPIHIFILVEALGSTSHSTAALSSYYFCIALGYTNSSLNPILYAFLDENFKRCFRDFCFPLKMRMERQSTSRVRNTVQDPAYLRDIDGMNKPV
Where a SMILES comes first, the peptide text is derived from it.

Examples with answers:
compound	reported-result
O=C(c1ccccc1)c1ccc2n1CCC2C(=O)O (stereo not given)	> 30 µM
C[C@H](N)C(=O)N[C@@H](CCC(N)=O)C(=O)O [ALANYL GLUTAMINE] (H-Ala-Gln-OH)	> 30 µM
O=C(C[S+]([O-])Cc1ccco1)NC/C=C\COc1cc(CN2CCCCC2)ccn1 (stereo not given)	> 10 µM
CCOC(=O)[C@H](CCc1ccccc1)N[C@@H](C)C(=O)N1Cc2ccccc2C[C@H]1C(=O)O	> 10 µM

Consider the additional compound presented here.
AC50 reported for this compound Cc1ccc(O)c([C@H](CCN(C(C)C)C(C)C)c2ccccc2)c1 : 6.71 µM
